# procedure-text: clinical
# conditions-used: human, plasma, oral, 80 mg, AUC0-t Mean, Part 1 Cohort 1, 80 mg QD, Cycle 1 Day 14
measured-parameter: AUC(0-t) (ng·h/mL)
One number for each entry, in ng·h/mL.

In: Give the measured AUC(0-t) of `CCCCCCCCCCCCCCCC(=O)NCCCC[C@@H](N)C(=O)NCCCNCCCCNCCCN` .
Out: 262

----------
# procedure-text: Clinical plasma pharmacokinetics of oral DFMO (NCT03536728)
# Format: in vivo
# conditions-used: human, 7-day repeat dosing of 1000 mg split BID, Cohort 3, n=6
# Excerpt: Clinical Trial Outline. […] All solid tumor types are eligible for the trial. […] DFMO was delivered orally twice daily in gel capsules.
measured-parameter: Cmax (ng/mL)
Give bare numbers, in ng/mL.

In: Give the measured Cmax of NCCCC(N)(C(=O)O)C(F)F (stereo not shown) .
Out: 4440

----------
# procedure-text: clinical
# conditions-used: human, plasma, oral, Tmax Mean, Part 1 Cohort 5, 1800 mg QD, Cycle 1 Day 28, +DFMO 500 mg/day
# Procedure: Clinical Trial Outline. […] All solid tumor types are eligible for the trial. […] An expansion cohort was included at the RP2D level to confirm safety and tolerability of the combination. […] Plasma samples were analyzed for AMXT 1501 concentration via a LC/MS^2 procedure (MI-0028-DB-AB; Agilux Laboratories, Worcester, Massachusetts), and the resulting concentration versus time data were used to estimate individual PK parameters using noncompartmental analysis (NCA).
measured-parameter: Tmax (h)
Numbers only, in h.

In: Give the measured Tmax of `CCCCCCCCCCCCCCCC(=O)NCCCC[C@@H](N)C(=O)NCCCNCCCCNCCCN` .
Out: 4.67

----------
# procedure-text: clinical
# conditions-used: human, plasma, oral, 80 mg, AUC0-t Median, Part 1 Cohort 1, 80 mg QD, Cycle 1 Day 14
measured-parameter: AUC(0-t)

In: Give the measured AUC(0-t) of CCCCCCCCCCCCCCCC(=O)NCCCC[C@@H](N)C(=O)NCCCNCCCCNCCCN [AMXT 1501, D-lys(palmitoyl)-spermine] .
Out: 51.3 ng·h/mL

----------
# procedure-text: clinical
# conditions-used: human, plasma, oral, Cmax Median, Part 1 Cohort 1, 80 mg QD, Cycle 1 Day 28, +DFMO 500 mg/day
measured-parameter: Cmax (ng/mL)
Give bare numbers, in ng/mL.

In: Give the measured Cmax of `CCCCCCCCCCCCCCCC(=O)NCCCC[C@@H](N)C(=O)NCCCNCCCCNCCCN` .
Out: 15.1

----------
# procedure-text: clinical
# conditions-used: human, plasma, oral, 160 mg, AUC0-6 hr Mean, Part 1 Cohort 2, 160 mg QD, Cycle 1 Day 14
measured-parameter: AUC(0-t)
A bare number is not enough; add the unit after it.

In: Give the measured AUC(0-t) of `CCCCCCCCCCCCCCCC(=O)NCCCC[C@@H](N)C(=O)NCCCNCCCCNCCCN` .
Out: 43.4 ng·h/mL

----------
# procedure-text: clinical
# conditions-used: human, plasma, oral, 1800 mg, AUC0-t Median, Part 1 Cohort 5, 1800 mg QD, Cycle 1 Day 14
measured-parameter: AUC(0-t) (ng·h/mL)
Give bare numbers, in ng·h/mL.

In: Give the measured AUC(0-t) of CCCCCCCCCCCCCCCC(=O)NCCCC[C@@H](N)C(=O)NCCCNCCCCNCCCN [AMXT 1501, D-lys(palmitoyl)-spermine] .
Out: 12800

----------
# procedure-text: clinical
# conditions-used: human, plasma, oral, 1200 mg, AUC0-t Median, Part 1 Cohort 4, 1200 mg QD, Cycle 1 Day 14
measured-parameter: AUC(0-t) (ng·h/mL)
Answers are plain numbers, in ng·h/mL.

In: Give the measured AUC(0-t) of `CCCCCCCCCCCCCCCC(=O)NCCCC[C@@H](N)C(=O)NCCCNCCCCNCCCN` .
Out: 3490

----------
# procedure-text: clinical
# conditions-used: human, in vivo, 1800 mg, Tmax Mean, Part 1 Cohort 5, 1800 mg QD, Cycle 1 Day 1
measured-parameter: Tmax (h)
One number for each entry, in h.

In: Give the measured Tmax of `CCCCCCCCCCCCCCCC(=O)NCCCC[C@@H](N)C(=O)NCCCNCCCCNCCCN` .
Out: 10.5

----------
# procedure-text: clinical
# conditions-used: human, plasma, oral, 1800 mg, AUC0-t Median, Part 1 Cohort 5, 1800 mg QD, Cycle 2 Day 14, n=1
measured-parameter: AUC(0-t) (ng·h/mL)
One number for each entry, in ng·h/mL.

In: Give the measured AUC(0-t) of `CCCCCCCCCCCCCCCC(=O)NCCCC[C@@H](N)C(=O)NCCCNCCCCNCCCN` .
Out: 33700

----------
# procedure-text: MALDI-FTICR imaging quantitation of DFMO in whole-body sections of Th-MYCN mice
# Assay type: in vivo, mouse
# conditions-used: male, Th-MYCN, mouse, thymus, oral, 1 % in drinking water, DFMO in Thymus, DFMO alone 1% in drinking water; mice 049, 082; 96 h
measured-parameter: concentration at 96 h

In: Give the measured concentration at 96 h of NCCCC(N)(C(=O)O)C(F)F (stereo not shown) .
Out: 20900 ng/g

----------
# procedure-text: in vivo
# conditions-used: male, Th-MYCN, mouse, stomach wall, sc, 2.5 mg/kg
measured-parameter: concentration at 96 h (ng/g)
Give bare numbers, in ng/g.

In: Give the measured concentration at 96 h of CCCCCCCCCCCCCCCC(=O)NCCCC[C@@H](N)C(=O)NCCCNCCCCNCCCN [AMXT 1501, D-lys(palmitoyl)-spermine] .
Out: 8550

----------
# procedure-text: clinical
# conditions-used: human, plasma, oral, 1200 mg, Cmax Median, Part 1 Cohort 4, 1200 mg QD, Cycle 1 Day 1
measured-parameter: Cmax (ng/mL)
Numbers only, in ng/mL.

In: Give the measured Cmax of `CCCCCCCCCCCCCCCC(=O)NCCCC[C@@H](N)C(=O)NCCCNCCCCNCCCN` .
Out: 71.2

----------
# procedure-text: MALDI-FTICR imaging quantitation of DFMO in whole-body sections of Th-MYCN mice
# Assay type: in vivo, mouse
# conditions-used: male, Th-MYCN, mouse, eye, sc, 2.5 mg/kg, DFMO in Eye, COMBO (1% DFMO + AMXT 1501 2.5 mg/kg SC); mice 284, 286; 96 h
measured-parameter: concentration at 96 h (ng/g)
Answers are plain numbers, in ng/g.

In: Give the measured concentration at 96 h of NCCCC(N)(C(=O)O)C(F)F (stereo not shown) .
Out: 92100

----------
# procedure-text: clinical
# conditions-used: human, plasma, oral, 160 mg, AUC0-t Median, Part 1 Cohort 2, 160 mg QD, Cycle 1 Day 1
measured-parameter: AUC(0-t) (ng·h/mL)
Numbers only, in ng·h/mL.

In: Give the measured AUC(0-t) of `CCCCCCCCCCCCCCCC(=O)NCCCC[C@@H](N)C(=O)NCCCNCCCCNCCCN` .
Out: 130

----------
# procedure-text: in vivo
# conditions-used: male, Th-MYCN, mouse, lung, sc, 2.5 mg/kg
measured-parameter: concentration at 96 h (ng/g)
One number for each entry, in ng/g.

In: Give the measured concentration at 96 h of CCCCCCCCCCCCCCCC(=O)NCCCC[C@@H](N)C(=O)NCCCNCCCCNCCCN [AMXT 1501, D-lys(palmitoyl)-spermine] .
Out: 14500

----------
# procedure-text: clinical
# conditions-used: human, plasma, oral, AUC0-6 hr Mean, Part 1 Cohort 2, 160 mg QD, Cycle 1 Day 28, +DFMO 500 mg/day
measured-parameter: AUC(0-t) (ng·h/mL)
Numbers only, in ng·h/mL.

In: Give the measured AUC(0-t) of CCCCCCCCCCCCCCCC(=O)NCCCC[C@@H](N)C(=O)NCCCNCCCCNCCCN [AMXT 1501, D-lys(palmitoyl)-spermine] .
Out: 88.6

----------
# procedure-text: clinical
# conditions-used: human, plasma, oral, Cmax Median, Part 1 Cohort 3, 400 mg QD, Cycle 1 Day 28, +DFMO 500 mg/day
measured-parameter: Cmax (ng/mL)
Give bare numbers, in ng/mL.

In: Give the measured Cmax of CCCCCCCCCCCCCCCC(=O)NCCCC[C@@H](N)C(=O)NCCCNCCCCNCCCN [AMXT 1501, D-lys(palmitoyl)-spermine] .
Out: 20.3

----------
# procedure-text: clinical
# conditions-used: human, plasma, oral, Cmax Median, Part 1 Cohort 2, 160 mg QD, Cycle 1 Day 28, +DFMO 500 mg/day
measured-parameter: Cmax (ng/mL)
Give bare numbers, in ng/mL.

In: Give the measured Cmax of `CCCCCCCCCCCCCCCC(=O)NCCCC[C@@H](N)C(=O)NCCCNCCCCNCCCN` .
Out: 23.2
